These entries and their values trace back to the supplement of paper PMC8728848.

# measurement-target: Neu5Ac(a2-6)Gal(b1-4)Glc
# assay-explanation: glycan array binding signal (z-score within array); higher = stronger binding
# conditions-used: glycan notation: IUPAC condensed, linker removed
The entries come from a sample that favours the strongest signals as a whole.
property-measured: glycan array binding signal (z-score)

Record PMA (Polygonatum multiflorum) (protein) LLTTTLFVFISSTRSLASTNVLYSDVGNAILNAKESLIYGDYRLDMQSDCNLVLYNKAAPYWASGTRWSWGGNCHLNLQSNGELVMYAYLGRTRIAIWRSGIISATGSYALVLKYDGALHVHGPSLWSTNATGPTTPTTASWSIDSTLWSGDVATIGPTIANGDYKLELLDTCNLTLSNTKTGQVLWYTNTTDWVHDCYVNIEGNGELKIKYLGGATLWSNKVGAGYTNNYVLGLRPDGKLDTYNAPIWSPTIGPGVHVAPAVYNASSNAVAAEGNGEKIAMVTGRAKNST . Reported glycan array binding signal (z-score): -0.255

Record L-Selectin (Mus musculus), P18337 (protein) MVFPWRCEGTYWGSRNILKLWVWTLLCCDFLIHHGTHCWTYHYSEKPMNWENARKFCKQNYTDLVAIQNKREIEYLENTLPKSPYYYWIGIRKIGKMWTWVGTNKTLTKEAENWGAGEPNNKKSKEDCVEIYIKRERDSGKWNDDACHKRKAALCYTASCQPGSCNGRGECVETINNHTCICDAGYYGPQCQYVVQCEPLEAPELGTMDCIHPLGNFSFQSKCAFNCSEGRELLGTAETQCGASGNWSSPEPICQVVQCEPLEAPELGTMDCIHPLGNFSFQSKCAFNCSEGRELLGTAETQCGASGNWSSPEPICQETNRSFSKIKEGDYNPLFIPVAVMVTAFSGLAFLIWLARRLKKGKKSQERMDDPY . Reported glycan array binding signal (z-score): -0.214

Record BDCA-2 (Homo sapiens), Q8WTT0 (protein) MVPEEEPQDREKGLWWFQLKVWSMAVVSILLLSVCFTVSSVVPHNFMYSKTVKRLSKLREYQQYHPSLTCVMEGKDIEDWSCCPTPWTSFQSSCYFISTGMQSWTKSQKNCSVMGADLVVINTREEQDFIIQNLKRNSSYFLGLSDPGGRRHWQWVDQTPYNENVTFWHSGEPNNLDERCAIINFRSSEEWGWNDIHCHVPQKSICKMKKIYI . Reported glycan array binding signal (z-score): -0.252

Record CLEC9a (Mus musculus), Q8BRU4 (protein) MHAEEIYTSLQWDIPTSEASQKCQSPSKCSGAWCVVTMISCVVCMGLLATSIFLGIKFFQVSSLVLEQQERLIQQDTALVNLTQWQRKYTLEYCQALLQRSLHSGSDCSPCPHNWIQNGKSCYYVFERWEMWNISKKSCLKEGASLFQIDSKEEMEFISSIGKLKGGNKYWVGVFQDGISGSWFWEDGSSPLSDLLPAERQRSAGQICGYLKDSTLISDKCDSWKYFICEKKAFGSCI . Reported glycan array binding signal (z-score): 0.132

Record MAL (Maackia amurensis) (protein) SDELSFTINNFMPNQGDLLFQGVATVSPTGVLQLTSEENGQPLEYSVGRVLYTAPVRIWDSTTGAVASFSTSFTFVVKAARGASDGLAFFLAPPDSQIPSGSVSKYLGLFNNSNSDSSNQIVAVEFDTYFGHSYDPWDPNYRHIGIDVNGIESIKTVQWDWINGGVAFATITYLAPNKTLIASLVYPSNQTSFIVAASVDLKEILPEWVRVGFSAATGAPKAVETHDVRSWSFTSTLEANSPADVDN . Reported glycan array binding signal (z-score): 0.057
